- target: DNA gyrase (Escherichia coli) (UniProt P0AES6+P0AES4)
- assay_name: Inhibition of Escherichia coli DNA gyrase subunit GyrA/GyrB supercoiling activity at 10 uM using relaxed pBR322 DNA incubated for 15 mins by ethidium bromide staining based gel electrophoresis method
- Format: protein-complex assay
Measured inhibition, listed per entry.

- molecule: "COc1ccc(Cn2cc(C(=O)O)c(=O)c3cc(F)c(N4CC[C@@H](CN)C4)c(OC)c32)cc1"
  target: "DNA gyrase (Escherichia coli) (UniProt P0AES6+P0AES4)"
  comparative_sign: "="
  inhibition [%]: 25.2
- molecule: "COc1c(N2CC[C@@H](CN)C2)c(F)cc2c1N(C1CC1)CC(C(=O)O)C2=O (stereo partly drawn)"
  target: "DNA gyrase (Escherichia coli) (UniProt P0AES6+P0AES4)"
  comparative_sign: ">"
  inhibition [%]: 96
- molecule: "COc1c(N2CC[C@@H](CN)C2)c(F)cc2c(=O)c(C(=O)O)cn(CCc3ccccc3)c12"
  target: "DNA gyrase (Escherichia coli) (UniProt P0AES6+P0AES4)"
  comparative_sign: "="
  inhibition [%]: 11
- molecule: "CCN1CCN(c2c(F)cc3c(=O)c(C(=O)O)cn(CCCCCN)c3c2OC)CC1"
  target: "DNA gyrase (Escherichia coli) (UniProt P0AES6+P0AES4)"
  comparative_sign: "<"
  inhibition [%]: 5
- molecule: "CCN1CCN(c2c(F)cc3c(=O)c(C(=O)O)cn(Cc4ccccc4)c3c2OC)CC1"
  target: "DNA gyrase (Escherichia coli) (UniProt P0AES6+P0AES4)"
  comparative_sign: "="
  inhibition [%]: 23.3
- molecule: "COc1c(N2CC[C@@H](CN)C2)c(F)cc2c(=O)c(C(=O)O)cn(CCCCN3C(=O)c4ccccc4C3=O)c12"
  target: "DNA gyrase (Escherichia coli) (UniProt P0AES6+P0AES4)"
  comparative_sign: "="
  inhibition [%]: 20.4
- molecule: "COc1c(N2CC[C@@H](CN)C2)c(F)cc2c(=O)c(C(=O)O)cn(CCCCN)c12"
  target: "DNA gyrase (Escherichia coli) (UniProt P0AES6+P0AES4)"
  comparative_sign: "="
  inhibition [%]: 25.7
- molecule: "COc1c(N2CC[C@@H](CN)C2)c(F)cc2c(=O)c(C(=O)O)cn(CCCCCN)c12"
  target: "DNA gyrase (Escherichia coli) (UniProt P0AES6+P0AES4)"
  comparative_sign: "="
  inhibition [%]: 12.3
- molecule: "COc1c(N2CC[C@@H](CN)C2)c(F)cc2c(=O)c(C(=O)O)cn(CCCN3C(=O)c4ccccc4C3=O)c12"
  target: "DNA gyrase (Escherichia coli) (UniProt P0AES6+P0AES4)"
  comparative_sign: "<"
  inhibition [%]: 5
- molecule: "COc1c(N2CC[C@@H](CN)C2)c(F)cc2c(=O)c(C(=O)O)cn(CCCc3ccccc3)c12"
  target: "DNA gyrase (Escherichia coli) (UniProt P0AES6+P0AES4)"
  comparative_sign: "="
  inhibition [%]: 27.1
- molecule: "COc1c(N2CC[C@@H](CN)C2)c(F)cc2c(=O)c(C(=O)O)cn(CCCN)c12"
  target: "DNA gyrase (Escherichia coli) (UniProt P0AES6+P0AES4)"
  comparative_sign: "<"
  inhibition [%]: 5
- molecule: "COc1c(N2CC[C@@H](CN)C2)c(F)cc2c(=O)c(C(=O)O)cn(CCCCCN3C(=O)c4ccccc4C3=O)c12"
  target: "DNA gyrase (Escherichia coli) (UniProt P0AES6+P0AES4)"
  comparative_sign: "="
  inhibition [%]: 20.2
- molecule: "COc1c(N2CC[C@@H](CN)C2)c(F)cc2c(=O)c(C(=O)O)cn(Cc3ccccc3)c12"
  target: "DNA gyrase (Escherichia coli) (UniProt P0AES6+P0AES4)"
  comparative_sign: "="
  inhibition [%]: 37.7
